Recorded pIC50 values (RAC-alpha serine/threonine-protein kinase (Homo sapiens, UniProt P31749)) are given below.
pIC50: −log10 of the molar value.

# Smiles Repr, pIC50
records = [
    ("c1ccc(-c2cc(-c3nn[nH]n3)cnc2-c2ccc(CN3CCC(n4cnc5ccccc54)CC3)cc2)cc1", 5.37),
    ("N#Cc1cnc(-c2ccc(CN3CCC(c4nc5ccccc5[nH]4)CC3)cc2)c(-c2ccccc2)c1", 5.83),
    ("N#Cc1cnc(-c2ccc(CN3CCC(n4cnc5ccccc54)CC3)cc2)c(-c2ccccc2)c1", 5.36),
    ("Cc1nc2ccccc2n1C1CCN(Cc2ccc(-c3ncc(-c4nn[nH]n4)cc3-c3ccccc3)cc2)CC1", 5.16),
]
